- ASSAYED SYSTEM: Beta-galactosidase (Bos taurus, UniProt Q58D55)
- Sequence (Q58D55 whole entry): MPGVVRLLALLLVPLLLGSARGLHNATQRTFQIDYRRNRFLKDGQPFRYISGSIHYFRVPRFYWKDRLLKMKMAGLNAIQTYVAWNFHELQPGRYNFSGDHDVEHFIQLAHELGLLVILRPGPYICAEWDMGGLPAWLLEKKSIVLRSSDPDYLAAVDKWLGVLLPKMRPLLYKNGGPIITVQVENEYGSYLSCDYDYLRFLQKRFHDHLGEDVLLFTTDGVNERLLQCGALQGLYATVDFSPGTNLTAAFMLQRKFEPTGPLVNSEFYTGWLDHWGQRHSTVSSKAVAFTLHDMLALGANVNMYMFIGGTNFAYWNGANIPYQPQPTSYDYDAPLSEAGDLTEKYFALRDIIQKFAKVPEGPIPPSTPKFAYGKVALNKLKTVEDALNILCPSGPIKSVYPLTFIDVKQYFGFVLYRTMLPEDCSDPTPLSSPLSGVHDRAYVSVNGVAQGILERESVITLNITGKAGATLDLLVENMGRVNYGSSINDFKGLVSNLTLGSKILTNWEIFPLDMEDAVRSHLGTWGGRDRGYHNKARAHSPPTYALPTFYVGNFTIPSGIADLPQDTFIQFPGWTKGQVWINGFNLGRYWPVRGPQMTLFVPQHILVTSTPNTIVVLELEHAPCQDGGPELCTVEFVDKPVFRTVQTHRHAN
QUANTITY MEASURED: Ki (nM)
I only need the number, in nM, no unit after it.

What Ki value was documented for this compound, `N#CCCCN[C@H]1[C@H](O)[C@@H](O)[C@@H](O)[C@H]1CO` ? 130

Likewise for `CN(C)c1cccc2c(S(=O)(=O)NCCCCCCN[C@H]3[C@H](O)[C@@H](O)[C@@H](O)[C@H]3CO)cccc12` ? 5.3

Likewise for `N#CCCCCCN[C@H]1[C@H](O)[C@@H](O)[C@@H](O)[C@H]1CO` ? 110

Likewise for `NCCCCCCN[C@H]1[C@H](O)[C@@H](O)[C@@H](O)[C@H]1CO` ? 31000

Origin of measurements: ChEMBL document CHEMBL4033736
